test.details: Pharmacokinetic analyses in mouse
Format: in vivo
applied.conditions: mouse, plasma, po, 30 mg/kg, mouse, 30 mg/kg p.o., 1 h, individual animals; read-out: Plasma concentration
Recorded measurements of concentration at 1 h, one per entry
Write it as a number; the unit nM goes unstated.

{"compound": "Cc1ncsc1-c1ccc(C(CCC(C)CCN2CCC(c3ccc4c(c3)n(C3CCCC3)c3nc(=O)c5c(Br)cccc5n43)CC2)NC(=O)C2CC(O)CN2C(=O)C(NC(=O)C2(F)CC2)C(C)(C)C)cc1 (centres unmarked) [ACBI2]", "unit.label": "nM", "concentration at 1 h": 4310}

(Q) Recorded concentration at 1 h for Cc1ncsc1-c1ccc([C@H](CCCCCN2CCC(c3ccc4c(c3)n(C3CCCC3)c3nc(=O)c5c(Br)cccc5n43)CC2)NC(=O)[C@@H]2C[C@@H](O)CN2C(=O)[C@@H](NC(=O)C2(F)CC2)C(C)(C)C)cc1 [compound 11] , please?
(A) 337

* * *

study.system: PBRM1BD5 (Homo sapiens, UniProt Q86U86)
Construct: GST (TEV site) (N); His6 (TEV site) (N, cleaved yes); made in house; host or cells: PBRM1^BD5: Escherichia coli BL21(DE3)
Sequence (Q86U86 645-766): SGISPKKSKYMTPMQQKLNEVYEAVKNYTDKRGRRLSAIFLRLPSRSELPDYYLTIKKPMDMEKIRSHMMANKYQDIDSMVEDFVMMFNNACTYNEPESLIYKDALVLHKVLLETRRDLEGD
test.details: TR-FRET ternary complex affinity and cooperativity, PBRM1
Type: binding
applied.conditions: TR-FRET competition for PBRM1BD5, without VCB; mean ± SD; read-out: TR-FRET PBRM1BD EC50
measured.endpoint: EC50 (nM)
Write it as a number; the unit nM goes unstated.

Study these solved cases before continuing.
{"smiles.str": "Cc1ncsc1-c1ccc(CNC(=O)[C@@H]2C[C@@H](O)CN2C(=O)[C@@H](NC(=O)C2(F)CC2)C(C)(C)C)c(OCCOCCOCCOCCN2CCC(c3ccc4c(c3)n(C3CCCC3)c3nc(=O)c5c(Br)cccc5n43)CC2)c1", "measured.number": 103}
{"smiles.str": "Cc1ncsc1-c1ccc(CNC(=O)[C@@H]2C[C@@H](O)CN2C(=O)[C@@H](NC(=O)C2(F)CC2)C(C)(C)C)c(OCCN2CCC(c3ccc4c(c3)n(C3CCCC3)c3nc(=O)c5c(Br)cccc5n43)CC2)c1", "measured.number": 38}
{"smiles.str": "Cc1ncsc1-c1ccc([C@H](COC(C)(C)CN2CCC(c3ccc4c(c3)n(C3CCCC3)c3nc(=O)c5c(Br)cccc5n43)CC2)NC(=O)[C@@H]2C[C@@H](O)CN2C(=O)[C@@H](NC(=O)C2(F)CC2)C(C)(C)C)cc1", "measured.number": 24}

(Q) Recorded EC50 for Cc1ncsc1-c1ccc([C@H](CCCCN2CCC(c3ccc4c(c3)n(C3CCCC3)c3nc(=O)c5c(Br)cccc5n43)CC2)NC(=O)[C@@H]2C[C@@H](O)CN2C(=O)[C@@H](NC(=O)C2(F)CC2)C(C)(C)C)cc1 , please?
(A) 36

* * *

study.system: SMARCA4 (Homo sapiens, UniProt P51532)
Sequence (P51532 whole entry): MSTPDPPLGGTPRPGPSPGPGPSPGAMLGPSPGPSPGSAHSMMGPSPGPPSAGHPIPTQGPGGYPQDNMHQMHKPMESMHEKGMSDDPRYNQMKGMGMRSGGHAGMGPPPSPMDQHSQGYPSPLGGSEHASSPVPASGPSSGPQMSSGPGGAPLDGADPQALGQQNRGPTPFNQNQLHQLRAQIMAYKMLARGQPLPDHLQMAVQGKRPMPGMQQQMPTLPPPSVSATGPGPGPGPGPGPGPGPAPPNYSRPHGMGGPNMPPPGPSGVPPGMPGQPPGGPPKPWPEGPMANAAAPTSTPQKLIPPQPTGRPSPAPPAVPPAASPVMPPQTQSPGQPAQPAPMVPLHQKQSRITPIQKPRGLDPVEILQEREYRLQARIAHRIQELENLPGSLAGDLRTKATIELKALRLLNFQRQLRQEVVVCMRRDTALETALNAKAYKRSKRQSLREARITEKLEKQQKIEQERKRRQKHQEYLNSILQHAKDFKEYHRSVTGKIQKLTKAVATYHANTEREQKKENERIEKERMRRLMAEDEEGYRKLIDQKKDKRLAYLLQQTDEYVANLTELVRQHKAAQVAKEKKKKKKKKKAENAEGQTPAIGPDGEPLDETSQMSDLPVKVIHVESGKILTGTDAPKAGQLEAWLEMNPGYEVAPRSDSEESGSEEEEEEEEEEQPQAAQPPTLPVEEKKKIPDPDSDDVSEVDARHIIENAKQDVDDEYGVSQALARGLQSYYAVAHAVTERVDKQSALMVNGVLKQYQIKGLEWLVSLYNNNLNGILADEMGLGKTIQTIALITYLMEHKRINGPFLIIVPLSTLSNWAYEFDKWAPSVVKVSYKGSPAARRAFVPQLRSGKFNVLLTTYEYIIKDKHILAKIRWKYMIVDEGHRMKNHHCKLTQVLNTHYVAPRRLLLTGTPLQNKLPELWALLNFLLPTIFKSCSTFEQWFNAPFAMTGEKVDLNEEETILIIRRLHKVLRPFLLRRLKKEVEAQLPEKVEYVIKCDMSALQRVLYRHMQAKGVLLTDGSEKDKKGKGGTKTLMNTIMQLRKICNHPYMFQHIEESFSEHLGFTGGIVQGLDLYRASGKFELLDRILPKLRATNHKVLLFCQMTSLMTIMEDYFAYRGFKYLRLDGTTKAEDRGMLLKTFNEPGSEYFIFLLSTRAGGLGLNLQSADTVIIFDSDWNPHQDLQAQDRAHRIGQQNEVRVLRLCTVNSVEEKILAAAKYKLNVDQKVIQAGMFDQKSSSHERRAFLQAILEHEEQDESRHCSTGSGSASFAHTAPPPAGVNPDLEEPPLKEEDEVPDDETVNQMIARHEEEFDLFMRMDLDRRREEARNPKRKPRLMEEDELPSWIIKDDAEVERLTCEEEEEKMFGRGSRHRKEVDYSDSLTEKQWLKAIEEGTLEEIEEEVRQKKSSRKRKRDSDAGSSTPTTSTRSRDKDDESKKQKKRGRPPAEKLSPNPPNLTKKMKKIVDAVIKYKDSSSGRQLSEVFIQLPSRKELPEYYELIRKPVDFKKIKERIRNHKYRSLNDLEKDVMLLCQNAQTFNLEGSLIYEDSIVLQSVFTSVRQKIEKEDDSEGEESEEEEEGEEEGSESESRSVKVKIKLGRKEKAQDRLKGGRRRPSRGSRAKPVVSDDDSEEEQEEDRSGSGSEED
test.details: SMARCA4 capillary electrophoresis protein assay in RKO cells
Type: cell-based
Design: endogenous in cells; host or cells: RKO, HCT116, LU99, HCC-364, HCT-15, HCC4006, SK-N-AS
applied.conditions: RKO (18 h); mean ± SD
measured.endpoint: DC50 (nM)
Write it as a number; the unit nM goes unstated.

(Q) Param readout= DC50; system= SMARCA4 (Homo sapiens, UniProt P51532); entry= Cc1ncsc1-c1ccc([C@H](CCCCN2CCC(c3ccc4c(c3)n(C3CCCC3)c3nc(=O)c5c(Br)cccc5n43)CC2)NC(=O)[C@@H]2C[C@@H](O)CN2C(=O)[C@@H](NC(=O)C2(F)CC2)C(C)(C)C)cc1 ; returns value.
(A) 40

(Q) Param readout= DC50; system= SMARCA4 (Homo sapiens, UniProt P51532); entry= Cc1ncsc1-c1ccc([C@H](CC[C@@H](C)CCN2CCC(c3ccc4c(c3)n(C3CCCC3)c3nc(=O)c5c(Br)cccc5n43)CC2)NC(=O)[C@@H]2C[C@@H](O)CN2C(=O)[C@@H](NC(=O)C2(F)CC2)C(C)(C)C)cc1 ; returns value.
(A) 11

* * *

Recorded measurements of fraction unbound at 5 h, 3 µmol/L, one per entry
test.details: Plasma protein binding
Format: in vitro ADME
applied.conditions: bovine, 10% calf plasma dilution in PBS, 10% calf; fraction unbound; read-out: PPB fu 10% Calf
Description: Binding of compound to plasma proteins was determined by equilibrium dialysis of 3 µmol/L compound in plasma (or plasma dilutions in PBS) against PBS through an 8 kDa molecular-weight cut-off cellulose membrane (RED device, Thermo Fisher) at 37 °C for 5 h. After incubation, aliquots from donor and acceptor compartments were precipitated and the concentrations in the supernatants were determined by quantitative LC-MS/MS. […]
Number, no unit, nothing else.

{"compound": "Cc1ncsc1-c1ccc([C@H](COC(C)CN2CCC(c3ccc4c(c3)n(C3CCCC3)c3nc(=O)c5c(Br)cccc5n43)CC2)NC(=O)[C@@H]2C[C@@H](O)CN2C(=O)[C@@H](NC(=O)C2(F)CC2)C(C)(C)C)cc1 (stereo partly shown) [compound 9]", "measured.endpoint": "fraction unbound at 5 h, 3 µmol/L", "measured.number": 0.07}

(Q) Recorded fraction unbound at 5 h, 3 µmol/L for Cc1ncsc1-c1ccc(C(CCC(C)CCN2CCC(c3ccc4c(c3)n(C3CCCC3)c3nc(=O)c5c(Br)cccc5n43)CC2)NC(=O)C2CC(O)CN2C(=O)C(NC(=O)C2(F)CC2)C(C)(C)C)cc1 (stereo not shown) [ACBI2] , please?
(A) 0.0035

(Q) Recorded fraction unbound at 5 h, 3 µmol/L for Cc1ncsc1-c1ccc([C@H](COC(C)CN2CCC(c3ccc4c(c3)n(C3CCCC3)c3nc(=O)c5c(Br)cccc5n43)CC2)NC(=O)[C@@H]2C[C@@H](O)CN2C(=O)[C@@H](NC(=O)C2(N(C)C)CC2)C(C)(C)C)cc1 (stereo partly shown) [compound 10] , please?
(A) 0.05

(Q) Recorded fraction unbound at 5 h, 3 µmol/L for Cc1ncsc1-c1ccc([C@H](CCCCCN2CCC(c3ccc4c(c3)n(C3CCCC3)c3nc(=O)c5c(Br)cccc5n43)CC2)NC(=O)[C@@H]2C[C@@H](O)CN2C(=O)[C@@H](NC(=O)C2(F)CC2)C(C)(C)C)cc1 [compound 11] , please?
(A) 0.0014

* * *

Recorded measurements of cooperativity α (SMARCA4BD), one per entry
Tested on: VCB: PROTAC: SMARCA4^BD ternary complex
test.details: TR-FRET ternary complex affinity and cooperativity, SMARCA4
Assay type: binding, human
applied.conditions: ratio TR-FRET EC50 / TR-FRET EC50 +VCB measured in the same run, SMARCA4BD
Number, no unit, nothing else.

Study these solved cases before continuing.
{"molecule": "Cc1ncsc1-c1ccc([C@H](COC(C)CN2CCC(c3ccc4c(c3)n(C3CCCC3)c3nc(=O)c5c(Br)cccc5n43)CC2)NC(=O)[C@@H]2C[C@@H](O)CN2C(=O)[C@@H](NC(=O)C2(F)CC2)C(C)(C)C)cc1 (stereo partly drawn) [compound 9]", "cooperativity α (SMARCA4BD)": 2.2}
{"molecule": "Cc1ncsc1-c1ccc(C(CCC(C)CCN2CCC(c3ccc4c(c3)n(C3CCCC3)c3nc(=O)c5c(Br)cccc5n43)CC2)NC(=O)C2CC(O)CN2C(=O)C(NC(=O)C2(F)CC2)C(C)(C)C)cc1 (stereo not drawn) [ACBI2]", "cooperativity α (SMARCA4BD)": 3.7}

Next molecule, cooperativity α (SMARCA4BD) to be filled in.
(Q) Recorded cooperativity α (SMARCA4BD) for Cc1ncsc1-c1ccc(CNC(=O)[C@@H]2C[C@H](O)CN2C(=O)[C@@H](NC(=O)C2(F)CC2)C(C)(C)C)c(OCCN2CCC(c3ccc4c(c3)n(C3CCCC3)c3nc(=O)c5c(Br)cccc5n43)CC2)c1 [compound 19] , please?
(A) 0.9

* * *

Recorded measurements of Caco-2 Efflux ratio, one per entry
System: Caco-2 cell monolayer
test.details: Bidirectional permeability measurement in Caco-2 cells
Assay type: in vitro ADME
applied.conditions: Caco-2

Study these solved cases before continuing.
{"molecule": "Cc1ncsc1-c1ccc([C@H](CCC(C)(C)CCN2CCC(c3ccc4c(c3)n(C3CCCC3)c3nc(=O)c5c(Br)cccc5n43)CC2)NC(=O)[C@@H]2C[C@@H](O)CN2C(=O)[C@@H](NC(=O)C2(F)CC2)C(C)(C)C)cc1", "Caco-2 Efflux ratio": "9.412 No peak area"}
{"molecule": "Cc1ncsc1-c1ccc([C@H](COC(C)CN2CCC(c3ccc4c(c3)n(C3CCCC3)c3nc(=O)c5c(Br)cccc5n43)CC2)NC(=O)[C@@H]2C[C@@H](O)CN2C(=O)[C@@H](NC(=O)C2(N(C)C)CC2)C(C)(C)C)cc1 (some centres unmarked)", "Caco-2 Efflux ratio": 5}
{"molecule": "O=c1nc2n(C3CCCC3)c3ccccc3n2c2cccc(Br)c12", "Caco-2 Efflux ratio": 0.8}
{"molecule": "Nc1cccc2c1c(=O)nc1n(C3CCCC3)c3ccccc3n21", "Caco-2 Efflux ratio": 0.5}

Next molecule, Caco-2 Efflux ratio to be filled in.
(Q) Param readout= Caco-2 Efflux ratio; system= Caco-2 cell monolayer; entry= CN1CCC(c2ccc3c(c2)n(C2CCCC2)c2nc(=O)c4c(Br)cccc4n32)CC1 ; returns value.
(A) 0.8
